# Tested on: P. destructans conidia
# Assay Method Text: VOC exposure assay with P. destructans conidia in a contained airspace; further: key: +: growth from spores; −: no visible growth
# Format: cell-based, Pseudogymnoascus destructans
# Measurement Context: 3 μl VOC, 10 day exposure
Readout Label: anti-P. destructans activity, growth from conidia

INSERT INTO measurements (molecule, result) VALUES
  ('CCCCCCCCC=O', '−'),
  ('O=Cc1ccccc1', '+'),
  ('CCCCCCCCCC=O', '−'),
  ('CCCCCCCCN(C)C', '+'),
  ('CCCCC(CC)CO (stereo not drawn)', '−'),
  ('c1ccc2scnc2c1', '+');

---

# Test system: P. destructans conidia
# Assay Method Text: VOC exposure assay with P. destructans conidia in a contained airspace; further: key: +: growth from spores; −: no visible growth
# Format: cell-based, Pseudogymnoascus destructans
# Measurement Context: 3 μl VOC, 7 day exposure
Readout Label: anti-P. destructans activity, growth from conidia

INSERT INTO assay_data (compound, result) VALUES
  ('CCCCCCCCC=O', '−'),
  ('CCCCCCCCN(C)C', '+'),
  ('CCCCC(CC)CO (stereo not drawn)', '−'),
  ('CCCCCCCCCC=O', '−'),
  ('c1ccc2scnc2c1', '−'),
  ('O=Cc1ccccc1', '−');
